Where these numbers come from: patent US20240209076A1

Listed below: pKd values for each entry.
target: T1, human IL-6 (human, UniProt P05231 30-212); assay: SPR Biacore, supernatant Ab on Protein A chip, 37 C
T1 construct: IL-6 flowed over captured antibodies
T1 sequence (P05231 30-212 limits assumed): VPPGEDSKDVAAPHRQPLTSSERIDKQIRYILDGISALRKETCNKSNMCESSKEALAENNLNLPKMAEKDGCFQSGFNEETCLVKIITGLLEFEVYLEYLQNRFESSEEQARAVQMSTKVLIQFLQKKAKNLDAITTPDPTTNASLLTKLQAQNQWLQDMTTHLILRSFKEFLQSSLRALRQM
pKd: −log10 of the molar value.
Parameter: pKd

Binder	Val
anti-IL-6 antibody, heavy chain I51S, G66D / light chain M32L, M50D, N52S, M88Q (antibody, IgG1, V domains shown, Full IgG1 (Expi293); VL = variant III) VH: EVQLVESGGGLVQPGGSLRLSCAASGFTFSPFAMSWVRQAPGKGLEWVAKSSPGGSWTYYSDTVTDRFTFSLDTSKSTAYLQMNSLRAEDTAVYYCARQLWGYYALDIWGQGTLVTVSS VL: DIQLTQSPSSLSASVGDRVTITCSASISVSYLYWYQQKPGKAPKLLIYDDSSLASGVPSRFSGSGSGTDFTLTISSLQPEDFATYYCQQWSGYPYTFGQGTKVEIK	9.66
anti-IL-6 antibody, heavy chain T65Q, G66D / light chain M32L, M50D, N52S, M88Q (antibody, IgG1, V domains shown, Full IgG1 (Expi293); VL = variant III) VH: EVQLVESGGGLVQPGGSLRLSCAASGFTFSPFAMSWVRQAPGKGLEWVAKISPGGSWTYYSDTVQDRFTFSLDTSKSTAYLQMNSLRAEDTAVYYCARQLWGYYALDIWGQGTLVTVSS VL: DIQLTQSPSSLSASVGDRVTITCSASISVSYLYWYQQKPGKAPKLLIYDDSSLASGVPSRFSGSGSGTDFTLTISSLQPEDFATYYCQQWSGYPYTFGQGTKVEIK	9.59
